System: Resistant Strains (Candida albicans C79, C6, C8, C31, C54, C70, C104, C138, C140; Candida stellatoidea C45)
EXPERIMENT_SUMMARY: In vitro anti-fungal activity, microtiter minimum inhibitory concentration (MIC) test, resistant strains (MIC-R)
Format: cell-based
STATED_CONDITIONS: 48 h, pH 5.4, read-out: MIC-R
Hi! Just check whether MIC is below 20 µg/mL. Below gives t, equal or above gives f.

COMPOUND: CCCCCCCCCCC(N)C(=O)N[C@H](C(N)=O)[C@H]1O[C@@H](n2ccc(=O)[nH]c2=O)[C@H](O)[C@@H]1O (some centres unmarked)
ASSIGNED_CLASS: f

Prompt: Just wondering, is MIC of CCCCCCCCCCCCNC(=O)[C@@H](NC(=O)[C@@H](N)CCCC)[C@H]1O[C@@H](n2ccc(=O)[nH]c2=O)[C@H](O)[C@@H]1O below 20 µg/mL?
Response: t

Prompt: Just wondering, is MIC of CCCCCCCCCCCCNC(=O)[C@@H](NC(=O)[C@@H](N)C(C)CSC)[C@H]1O[C@@H](n2ccc(=O)[nH]c2=O)[C@H](O)[C@@H]1O (some centres unmarked) below 20 µg/mL?
Response: f

Prompt: Just wondering, is MIC of CCCCCCCCCCCCNC(=O)[C@@H](NC(=O)[C@@H](N)CSCc1ccccc1)[C@H]1O[C@@H](n2ccc(=O)[nH]c2=O)[C@H](O)[C@@H]1O below 20 µg/mL?
Response: f

Prompt: Just wondering, is MIC of CCCCCCCCCCCCNC(=O)[C@@H](NC(=O)C1(N)CC2CCC1C2)[C@H]1O[C@@H](n2ccc(=O)[nH]c2=O)[C@H](O)[C@@H]1O (some centres unmarked) below 20 µg/mL?
Response: f

Prompt: Just wondering, is MIC of C=C[C@@H](C)[C@H](N)C(=O)N[C@H](C(=O)NCCCCCCCCCCCC)[C@H]1O[C@@H](n2ccc(=O)[nH]c2=O)[C@H](O)[C@@H]1O below 20 µg/mL?
Response: t

Prompt: Just wondering, is MIC of CCCCCCCCCCCCNC(=O)[C@@H](NC(=O)[C@@H](N)CC[S+](C)[O-])[C@H]1O[C@@H](n2ccc(=O)[nH]c2=O)[C@H](O)[C@@H]1O (some centres unmarked) below 20 µg/mL?
Response: f

Prompt: Just wondering, is MIC of CCCCCCCCCCCCNC(=O)[C@@H](NC(=O)[C@@H](N)CCOC)[C@H]1O[C@@H](n2ccc(=O)[nH]c2=O)[C@H](O)[C@@H]1O below 20 µg/mL?
Response: f
